Source: ChEMBL document CHEMBL4145665

test: Fraction unbound in Wistar-Han rat plasma at 1 mg/kg, iv or 2 mg/kg, po administered as single dose; assay type: ADME, organism-based
OBSERVATION TYPE: fraction unbound
Please state the value as a number alone, without comment.

// fraction unbound value for COc1cc(-c2ccc(C3CCc4ccc([C@H](C5CC5)[C@H](C)C(=O)[O-])cc4O3)nc2)c(F)cn1.[Na+] (stereo in doubt; 29) : 0.001

// fraction unbound value for COc1ccc(F)c(-c2ccc(C3CCc4ccc([C@H](C5CC5)[C@H](C)C(=O)[O-])cc4O3)nc2)c1.[Na+] (stereo in doubt; 16) : 0.003

// fraction unbound value for COc1cc(-c2ccc([C@@H]3CCc4ccc([C@H](C5CC5)[C@H](C)C(=O)[O-])cc4O3)c(F)c2)ccn1.[Na+] : 0.0002

Next, consider the following molecule.
// fraction unbound value for COc1ccc(F)c(-c2ccc(C3CCc4ccc([C@H](C5CC5)[C@H](C)C(=O)[O-])cc4O3)cc2)c1.[Na+] (stereo in doubt; 14) : 0.005
